Data origin, for the record: patent US20120177693A1

test: Venous plasma pharmacokinetics of inhaled treprostinil via AERx Essence or Nebu-Tec Optineb, 14 healthy male subjects; conditions: male, human, plasma, inhaled, 26 μg, Cmax, via AERx; Median
readout_kind: Cmax (ng/mL)
Write it as a number; the unit ng/mL goes unstated.

Briefly, Cmax measured for CCCCC[C@H](O)CC[C@@H]1[C@H]2Cc3cccc(OCC(=O)[O-])c3C[C@H]2C[C@H]1O.[Na+] [treprostinil] : 0.548

----------
test: Venous plasma pharmacokinetics of inhaled treprostinil via AERx Essence or Nebu-Tec Optineb, 14 healthy male subjects; conditions: male, human, plasma, inhaled, 6 puffs, Tmax, via Optineb; Mean
readout_kind: Tmax (min)
Write it as a number; the unit min goes unstated.

Briefly, Tmax measured for CCCCC[C@H](O)CC[C@@H]1[C@H]2Cc3cccc(OCC(=O)[O-])c3C[C@H]2C[C@H]1O.[Na+] : 8.94

----------
assay: Venous plasma pharmacokinetics of inhaled treprostinil via AERx Essence or Nebu-Tec Optineb, 14 healthy male subjects; details: male, human, plasma, inhaled, 19.58 μg, Cmax, via Optineb; GM (geometric mean)
readout_kind: Cmax (ng/mL)
Write it as a number; the unit ng/mL goes unstated.

Briefly, Cmax measured for CCCCC[C@H](O)CC[C@@H]1[C@H]2Cc3cccc(OCC(=O)[O-])c3C[C@H]2C[C@H]1O.[Na+] [treprostinil] : 0.707

----------
assay: Venous plasma pharmacokinetics of inhaled treprostinil via AERx Essence or Nebu-Tec Optineb, 14 healthy male subjects; conditions: male, human, plasma, inhaled, 2 AERx strips
readout_kind: Vd/F (L)
Write it as a number; the unit L goes unstated.

Briefly, Vd/F measured for CCCCC[C@H](O)CC[C@@H]1[C@H]2Cc3cccc(OCC(=O)[O-])c3C[C@H]2C[C@H]1O.[Na+] [treprostinil] : 44

----------
experiment: Venous plasma pharmacokinetics of inhaled treprostinil via AERx Essence or Nebu-Tec Optineb, 14 healthy male subjects; details: male, human, plasma, inhaled, 19.58 μg, T1/2, via Optineb; GM
readout_kind: half-life (min)
Write it as a number; the unit min goes unstated.

Briefly, half-life measured for CCCCC[C@H](O)CC[C@@H]1[C@H]2Cc3cccc(OCC(=O)[O-])c3C[C@H]2C[C@H]1O.[Na+] [treprostinil] : 38.5

----------
test: Venous plasma pharmacokinetics of inhaled treprostinil via AERx Essence or Nebu-Tec Optineb, 14 healthy male subjects; conditions: male, human, plasma, inhaled, 6 puffs
readout_kind: Vd/F (L)
Write it as a number; the unit L goes unstated.

Briefly, Vd/F measured for CCCCC[C@H](O)CC[C@@H]1[C@H]2Cc3cccc(OCC(=O)[O-])c3C[C@H]2C[C@H]1O.[Na+] : 36
